systemTested: DRB1*0101 (DR1) (Homo sapiens, UniProt P01903+P01911, A100R/D57E/F55L/F60I/F76Y/I96L/L162R/M171V/P40L/Q125E/R42F/V115G/Y59C)
Construct: used as sources of human HLA class II molecules; endogenous in cells; host or cells: LG2 (EBV-transformed homozygous B cell line)
protocolDescription: Class II peptide-binding assay, DR1;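 further: competition assay: unlabeled test peptides inhibit binding of a radiolabeled probe peptide to purified DR, with half-maximal inhibition taken as an approximate dissociation constant Kd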
testContext: read-out: DR1 nM (In IC50 Format); purified HLA DR1
Ends that are not written are not given here.
Categorize each record by its IC50 using 1 = under 4 nM, 2 = from 4 nM up to 20 nM, 3 = 20 nM and over

- substance: "YARFQSQTTLKAKA-NH2 [Peptide 717.48]"
  class: 1
- substance: "YARFQSQTTLKAET-NH2 [Peptide 717.26]"
  class: 3
- substance: "YARFQSQTTAKAKT-NH2 [Peptide 717.51]"
  class: 1
- substance: "YIAFLKQATAKLAT [Peptide 723.01]"
  class: 2
- substance: "YARFQFQTTLKAKT-NH2 [Peptide 717.46]"
  class: 2
- substance: "LVEALYLVSGERGFFYTPKT [Peptide 734.03]"
  class: 3
- substance: "LVHSSNNFGAILSSTNVGS [Peptide 735.04]"
  class: 3
- substance: "YAAYVKLTAARKFA-NH2 [Peptide 806.03]"
  class: 1
- substance: "YAEFQSQTTLKAKT-NH2 [Peptide 717.41]"
  class: 3
- substance: "ASQKRPSQRSKYLATAST [Peptide 765.011]"
  class: 3
- substance: "INSWVESQTNGIIRNVLQPS [Peptide 732.01]"
  class: 3
- substance: "YARFQRQTTLKAAA-NH2 [Peptide 717.10]"
  class: 1
- substance: "NPVVHFFKNIVTPRTPPPS [Peptide 765.09]"
  class: 2
- substance: "KYLATASTMDHARHGFLP [Peptide 765.02]"
  class: 3
- substance: "KSNTATSATQRLANSLVH [Peptide 735.01]"
  class: 3
- substance: "YAKFQSQTTLKAKT-NH2 [Peptide 717.40]"
  class: 2
- substance: "YARFQSQTSLKAKT-NH2 [Peptide 717.31]"
  class: 2
- substance: "YARFQSQTTLKAKE-NH2 [Peptide 717.28]"
  class: 2
- substance: "YARFQSATTLKAKT-NH2 [Peptide 717.54]"
  class: 2
- substance: "YSRFQSQTTLKAKT-NH2 [Peptide 717.38]"
  class: 2
- substance: "AAFAAAAAQRLFA-NH2 [Peptide 761.01]"
  class: 1
- substance: "YASFVSQTAQRLFY-NH2 [Peptide 717.03]"
  class: 1
- substance: "YARFQSQTTLEAKT-NH2 [Peptide 717.22]"
  class: 2
- substance: "YARFQSQTYLKAKT-NH2 [Peptide 717.33]"
  class: 3
- substance: "YARFQSQTTLAAKT-NH2 [Peptide 717.50]"
  class: 2
- substance: "YARFNSQTTLKAKT-NH2 [Peptide 717.44]"
  class: 2
- substance: "YARFQSQTTLKSKT-NH2 [Peptide 717.23]"
  class: 3
- substance: "YARFQSQTTLKAKT [Peptide 717.67]"
  class: 1
- substance: "AFAAAATLKA-NH2 [Peptide 770.01]"
  class: 3
- substance: "YARFQSQTTLKAAT-NH2 [Peptide 717.49]"
  class: 1
- substance: "YAEFQAEKTLKAAS-NH2 [Peptide 717.05]"
  class: 2
- substance: "YERFQSQTTLKAKT-NH2 [Peptide 717.39]"
  class: 2
- substance: "YARAQSQTTLKAKT-NH2 [Peptide 717.29]"
  class: 3
- substance: "YARYQSQTTLKAKT-NH2 [Peptide 717.42]"
  class: 2
- substance: "YARFQAQTTLKAKT-NH2 [Peptide 717.55]"
  class: 1
- substance: "YARFASQTTLKAKT-NH2 [Peptide 717.56]"
  class: 1
- substance: "YARFQSNTTLKAKT-NH2 [Peptide 717.47]"
  class: 3
- substance: "YARFQSQTTLKART-NH2 [Peptide 717.25]"
  class: 2
- substance: "YARFQSQTTIKAKT-NH2 [Peptide 717.19]"
  class: 2
- substance: "YARFQSQTVLKAKT-NH2 [Peptide 717.32]"
  class: 2

###

systemTested: DRB1*1302 (DR6w19) (Homo sapiens, UniProt P01903+P01911, A100E/A169T/K41T/L162R/M171V/P40S/Q125H/Q178H/Q39Y/Q99D/R42S/S66N/T262R/V115G/W38E/Y61H)
Assay type: binding
testContext: Table V B) Correct Predictions; read-out: Binding Capacity (IC50% nM) DR6w19
Ends that are not written are not given here.
The entries below are paired with their reported IC50.
measuredProperty: IC50

- inputSequence: "LAAIIFLFGPPTALRS [Peptide 1136.28]"
  measuredProperty: "IC50"
  experimentalResult: "3180 nM"
- inputSequence: "QEIDPLSYNYIPVNSN [Peptide 1136.55]"
  measuredProperty: "IC50"
  experimentalResult: "5000 nM"

###

systemTested: DRB1*0301 (DR3w17) (Homo sapiens, UniProt P01903+P01911, A100K/A102G/A103R/A169T/F55Y/I96L/K41T/L162R/M171V/P40S/Q125H/Q178H/Q39Y/R42S/S66N/T106N/T262R/W38E/Y61H)
Construct: used as sources of human HLA class II molecules; endogenous in cells; host or cells: MAT (EBV-transformed homozygous B cell line)
Sequence (P01903 26-254, other chains not shown): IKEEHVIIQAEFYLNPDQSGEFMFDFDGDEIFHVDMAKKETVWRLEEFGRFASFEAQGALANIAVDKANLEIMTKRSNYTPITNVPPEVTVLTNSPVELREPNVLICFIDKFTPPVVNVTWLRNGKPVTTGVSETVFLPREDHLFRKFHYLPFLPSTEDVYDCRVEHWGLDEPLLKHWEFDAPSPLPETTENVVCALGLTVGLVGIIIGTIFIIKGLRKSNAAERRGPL
protocolDescription: Class II peptide-binding assay, DR3 (pH 4.5);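 further: unlabeled peptide competing with a radiolabeled probe peptide for binding to affinity-purified HLA-DR3, IC50 regarded as an approximation of Kd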
testContext: read-out: In IC50 Format DR3 nM; Table VIII; values in parentheses read as lower bounds
Ends that are not written are not given here.

- inputSequence: "NQEVTAEDGTQRCEK [Peptide 39.0347]"
  IC50: "> 111 µM"
- inputSequence: "KNGVVKDVFAFGGAV [Peptide 39.0381]"
  IC50: "> 120 µM"
- inputSequence: "DTILWKDIFHKNNQL [Peptide 39.0342]"
  IC50: "> 111 µM"
- inputSequence: "SDVFDGDLGMGAAKG [Peptide 39.0378]"
  IC50: "> 120 µM"
- inputSequence: "MRRLLQETELVEPLT [Peptide 39.0360]"
  IC50: "> 111 µM"
- inputSequence: "SLAFLPESFDGDPAS [Peptide 39.0349]"
  IC50: "> 111 µM"
- inputSequence: "LVTYNTDTFESMPNP [Peptide 39.0345]"
  IC50: "> 111 µM"
- inputSequence: "TVPLPSETDGYVAPL [Peptide 39.0380]"
  IC50: "> 120 µM"
- inputSequence: "FVVIQNEDLGPASPL [Peptide 39.0372]"
  IC50: "> 120 µM"

###

systemTested: DRB1*0701 (DR7) (Homo sapiens, UniProt P01903+P01911, A100R/A102G/A103Q/D57E/D86V/E43K/F76Y/K127E/L162R/M171V/P40G/Q125H/Q99D/R33Q/R42Y/R54Q/S133A/S66F/T210M/V115G/Y107V/Y59L/Y89S)
protocolDescription: Class II peptide-binding assay, DR7
testContext: Table VIII; read-out: In IC50 Format DR7
pIC50: −log10 of the molar value. Ends that are not written are not given here.

- inputSequence: "KMYFNLINTKCYKLEH [Peptide 541.14]"
  pIC50: 6.57

###

systemTested: DRB1*0701 (DR7) (Homo sapiens, UniProt P01903+P01911, A100R/A102G/A103Q/D57E/D86V/E43K/F76Y/K127E/L162R/M171V/P40G/Q125H/Q99D/R33Q/R42Y/R54Q/S133A/S66F/T210M/V115G/Y107V/Y59L/Y89S)
protocolDescription: Class II peptide-binding assay, DR7;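 further: unlabeled peptides compete with an iodinated probe peptide for binding to affinity-purified HLA-DR at neutral pH, DR amount titered to bind a small tracer fraction, IC50 approximating Kd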
testContext: purified HLA DR7; read-out: DR7 nM (In IC50 Format)
Ends that are not written are not given here.
The entries below are paired with their reported IC50.

- inputSequence: "MQYIKANSKFIGITE [Peptide 812.05]"
  measureUnit: "nM"
  IC50: 7.8
- inputSequence: "LMQYIKANSKFIGITE [Peptide 812.03]"
  measureUnit: "nM"
  IC50: 11.9

###

systemTested: DRB1*1101 (DR5w11) (Homo sapiens, UniProt P01903+P01911, A100R/A169T/A87E/I96F/K41T/L162R/M171V/P40S/Q125H/Q178H/Q39Y/Q99D/R42S/S66Y/T262R/V115G/W38E)
Construct: used as sources of human HLA class II molecules; endogenous in cells; host or cells: SWEIG (EBV-transformed homozygous B cell line)
protocolDescription: Class II peptide-binding assay, DR5w11;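 further: competition by unlabeled test peptide against iodinated probe peptide binding to affinity-purified HLA-DR, class II amount titrated beforehand, half-maximal inhibitory concentration read as approximate Kd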
testContext: read-out: DR5w11 nM (In IC50 Format); purified HLA DR5w11
Square brackets hold non-standard residues; d marks the D form. Peptide text beside a SMILES is read from it.
Strictly below 0.05 µM in IC50: Yes. Otherwise: No.

- compound: "C[C@H](NC(=O)[C@H](C)NC(=O)[C@H](C)NC(=O)[C@H](Cc1ccc(O)cc1)NC(=O)[C@H](C)NC(=O)[C@@H](C)N)C(=O)N[C@@H](C)C(=O)N[C@H](C(=O)N[C@@H](C)C(=O)N[C@@H](CCCCN)C(=O)N[C@@H](C)C(=O)N[C@@H](C)C(=O)N[C@H](C)C(N)=O)[C@@H](C)O [Peptide 762.02] (H-[dA]AYAAAATAKAA[dA]-NH2)"
  class: "Yes"
- compound: "CC[C@H](C)[C@H](NC(=O)[C@@H](NC(=O)[C@@H](NC(=O)[C@H](CCC(=O)O)NC(=O)[C@H](CCCNC(=N)N)NC(=O)CN)[C@@H](C)O)C(C)C)C(=O)N[C@@H](CCC(=O)O)C(=O)N[C@@H](Cc1ccc(O)cc1)C(=O)N[C@@H](CC(C)C)C(=O)N[C@H](C(=O)N[C@@H](CO)C(=O)N[C@@H](Cc1ccccc1)C(=O)NCC(=O)N[C@H](C(=O)N[C@@H](Cc1c[nH]c2ccccc12)C(=O)O)C(C)C)C(C)C [Peptide 802.04]"
  class: "No"
- compound: "CC(C)C[C@H](NC(=O)[C@@H](NC(=O)[C@@H](NC(=O)[C@H](CCC(N)=O)NC(=O)[C@H](CCCNC(=N)N)NC(=O)[C@H](CCC(N)=O)NC(=O)[C@H](Cc1ccccc1)NC(=O)[C@H](CCCNC(=N)N)NC(=O)[C@H](C)NC(=O)[C@H](N)Cc1ccc(O)cc1)[C@@H](C)O)[C@@H](C)O)C(=O)N[C@@H](CCCCN)C(=O)N[C@@H](C)C(=O)N[C@@H](C)C(=O)N[C@H](C)C(N)=O [Peptide 781.09] (H-[dY]ARFQRQTTLKAA[dA]-NH2)"
  class: "Yes"
- compound: "CC(C)C[C@H](NC(=O)[C@@H](NC(=O)[C@@H](NC(=O)[C@H](CCC(N)=O)NC(=O)[C@H](CCCNC(=N)N)NC(=O)[C@H](CCC(N)=O)NC(=O)[C@H](Cc1ccccc1)NC(=O)[C@H](C)NC(=O)[C@H](C)NC(=O)[C@H](N)Cc1ccc(O)cc1)[C@@H](C)O)[C@@H](C)O)C(=O)N[C@@H](CCCCN)C(=O)N[C@@H](C)C(=O)N[C@@H](C)C(=O)N[C@H](C)C(N)=O [Peptide 781.16] (H-[dY]AAFQRQTTLKAA[dA]-NH2)"
  class: "Yes"
- compound: "CSCC[C@H](NC(=O)[C@H](CC(C)C)NC(=O)[C@H](CCC(=O)O)NC(=O)CNC(=O)[C@H](Cc1c[nH]c2ccccc12)NC(=O)[C@@H](N)CS)C(=O)N[C@H](C(=O)N[C@@H](CC(C)C)C(=O)N[C@@H](C)C(=O)N[C@H](C(=O)N[C@@H](Cc1c[nH]c2ccccc12)C(=O)N[C@H](C(=O)NCC(=O)N[C@H](C(=O)N[C@@H](CC(N)=O)C(=O)N[C@@H](CC(C)C)C(=O)N[C@@H](CCC(=O)O)C(=O)N[C@@H](CC(=O)O)C(=O)O)C(C)C)C(C)C)[C@@H](C)O)[C@@H](C)O [Peptide 802.02]"
  class: "No"
- compound: "CC[C@H](C)[C@H](NC(=O)[C@H](C)NC(=O)CNC(=O)[C@H](Cc1ccccc1)NC(=O)[C@H](CC(N)=O)NC(=O)[C@H](CC(N)=O)NC(=O)[C@H](N)CO)C(=O)N[C@@H](CC(C)C)C(=O)N[C@@H](CO)C(=O)N[C@@H](CO)C(=O)N[C@H](C(=O)N[C@@H](CC(N)=O)C(=O)N[C@H](C(=O)NCC(N)=O)C(C)C)[C@@H](C)O [Peptide 735.05] (H-[dS]NNFGAILSSTNVG-NH2)"
  class: "No"
- compound: "C[C@H](NC(=O)[C@H](C)NC(=O)[C@H](C)NC(=O)[C@H](C)NC(=O)[C@H](Cc1ccc(O)cc1)NC(=O)[C@H](C)NC(=O)[C@@H](C)N)C(=O)N[C@@H](C)C(=O)N[C@@H](C)C(=O)N[C@@H](CCCCN)C(=O)N[C@@H](C)C(=O)N[C@@H](C)C(=O)N[C@H](C)C(N)=O [Peptide 762.01] (H-[dA]AYAAAAAAKAA[dA]-NH2)"
  class: "Yes"
- compound: "CSCC[C@H](N)C(=O)NCC(=O)N[C@@H](CCC(N)=O)C(=O)N[C@@H](CC(N)=O)C(=O)N[C@@H](CC(C)C)C(=O)N[C@@H](CO)C(=O)N[C@H](C(=O)N[C@@H](CO)C(=O)N[C@@H](CC(N)=O)C(=O)N1CCC[C@H]1C(=O)N[C@@H](CC(C)C)C(=O)NCC(=O)N[C@@H](Cc1ccccc1)C(=O)N[C@@H](Cc1ccccc1)C(=O)N1CCC[C@H]1C(=O)N[C@@H](CC(=O)O)C(=O)N[C@@H](Cc1c[nH]cn1)C(=O)O)[C@@H](C)O [Peptide 800.01]"
  class: "No"
- compound: "CC(C)C[C@H](NC(=O)[C@@H](NC(=O)[C@@H](NC(=O)[C@H](CCC(N)=O)NC(=O)[C@H](CCCCN)NC(=O)[C@H](CC(=O)O)NC(=O)[C@H](Cc1ccccc1)NC(=O)[C@@H](CCCNC(=N)N)NC(=O)[C@H](C)NC(=O)[C@H](N)Cc1ccc(O)cc1)[C@@H](C)O)[C@@H](C)O)C(=O)N[C@@H](CCCCN)C(=O)N[C@@H](C)C(=O)N[C@@H](C)C(=O)N[C@H](C)C(=O)O [Peptide 781.19] (H-[dY]A[dR]FDKQTTLKAA[dA]-OH)"
  class: "Yes"
